Molecular target: hCD38 Enzyme (Homo sapiens)
Construct: purchased Sino Biological Inc 10818-H08H
Sequence (P28907 43-300 limits assumed): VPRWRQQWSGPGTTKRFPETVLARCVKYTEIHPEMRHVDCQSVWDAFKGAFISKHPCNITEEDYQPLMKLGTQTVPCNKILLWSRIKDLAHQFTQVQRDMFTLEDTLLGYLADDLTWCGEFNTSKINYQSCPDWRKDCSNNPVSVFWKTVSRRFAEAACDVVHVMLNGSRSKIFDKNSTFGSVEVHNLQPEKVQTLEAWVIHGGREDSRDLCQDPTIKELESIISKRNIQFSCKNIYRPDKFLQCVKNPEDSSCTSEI
Test: CD38 hydrolase enzymatic assay
Assay type: biochemical
Details: rhCD38, ε-NAD substrate, 25° C., point reading time 20 mins; read-out: hCD38 Enzyme inhibition IC50
measure: IC50 (nM)
Answers are plain numbers, in nM.

>  <smiles.code>
C[C@H]1CC[C@H](NC(=O)c2cc(N3CCCCC3)nc(-n3ccnc3)n2)CC1

>  <measure>
IC50

>  <unit.info>
nM

>  <observed>
70

$$$$

Give me IC50 for each of these compounds, listed below.
1. CO[C@H]1CC[C@H](NC(=O)c2cc(-n3ccnc3)nnc2N)CC1
2. CO[C@H]1CC[C@H](NC(=O)c2cc(-n3ccnc3)ncc2N)CC1
3. Cc1cncn1-c1cncc(C(=O)NC2CCCCC2)n1
4. Nc1ccc(-n2ccnc2)nc1C(=O)NC1CCCCC1
5. CO[C@H]1CC[C@H](NC(=O)c2cc(OC3CCC3)nc(-n3ccnc3)n2)CC1

725
111
2190
15
26
